Target: 3',5'-cyclic-AMP phosphodiesterase 4D (Homo sapiens)
Sequence (Q08499 whole entry, the tested form may be a part): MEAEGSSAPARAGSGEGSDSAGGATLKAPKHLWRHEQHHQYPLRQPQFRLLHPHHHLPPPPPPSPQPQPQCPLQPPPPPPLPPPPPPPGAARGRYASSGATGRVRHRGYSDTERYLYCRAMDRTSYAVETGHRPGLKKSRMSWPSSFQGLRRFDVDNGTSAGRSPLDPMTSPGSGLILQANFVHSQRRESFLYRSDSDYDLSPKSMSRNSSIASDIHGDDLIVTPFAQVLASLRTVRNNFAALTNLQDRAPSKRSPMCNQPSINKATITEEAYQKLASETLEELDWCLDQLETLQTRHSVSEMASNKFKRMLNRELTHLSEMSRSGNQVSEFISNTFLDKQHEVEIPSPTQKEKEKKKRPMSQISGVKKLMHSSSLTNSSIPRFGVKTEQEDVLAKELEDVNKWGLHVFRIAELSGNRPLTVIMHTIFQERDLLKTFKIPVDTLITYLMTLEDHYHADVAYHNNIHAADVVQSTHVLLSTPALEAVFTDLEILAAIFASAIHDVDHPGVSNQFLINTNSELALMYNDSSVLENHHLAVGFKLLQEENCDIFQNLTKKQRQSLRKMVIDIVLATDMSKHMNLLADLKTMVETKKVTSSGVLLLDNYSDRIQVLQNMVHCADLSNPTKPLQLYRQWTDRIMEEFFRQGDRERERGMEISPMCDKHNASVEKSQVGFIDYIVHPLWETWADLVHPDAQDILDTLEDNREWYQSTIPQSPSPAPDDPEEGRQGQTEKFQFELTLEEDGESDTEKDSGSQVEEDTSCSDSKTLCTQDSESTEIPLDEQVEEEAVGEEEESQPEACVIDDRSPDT
Assay: Inhibition of human PDE4D2 (86 to 413 residues) extracted from Escherichia coli BL21 cells using 3H-cAMP/3H-cGMP as substrate preincubated with compound for 15 mins followed by substrate addition by liquid scintillation counter
TEST_READOUT: pIC50
pIC50 is defined as minus the log10 of a concentration measured in mol/L.

Recorded results for 10 compounds are shown here.
O=C(O)COc1c(O)ccc2cc(-c3ccc(OC(F)F)c(OCC4CC4)c3)oc12 ... 7.63
O=C(O)CCCCOc1c(O)ccc2cc(-c3ccc(OC(F)F)c(OCC4CC4)c3)oc12 ... 7.69
COC(=O)[C@H]1C[C@H](Oc2c(O)ccc3cc(-c4ccc(OC(F)F)c(OCC5CC5)c4)oc23)CN1 ... 7.52
COC(=O)[C@@H]1C[C@@H](Oc2c(O)ccc3cc(-c4ccc(OC(F)F)c(OCC5CC5)c4)oc23)CN1 ... 7.36
COC(=O)CCCOc1c(O)ccc2cc(-c3ccc(OC(F)F)c(OCC4CC4)c3)oc12 ... 7.84
COC(=O)CCCCOc1c(O)ccc2cc(-c3ccc(OC(F)F)c(OCC4CC4)c3)oc12 ... 7.63
COC(=O)[C@@H]1C[C@H](Oc2c(O)ccc3cc(-c4ccc(OC(F)F)c(OCC5CC5)c4)oc23)CN1 ... 7.96
COC(=O)[C@H]1C[C@@H](Oc2c(O)ccc3cc(-c4ccc(OC(F)F)c(OCC5CC5)c4)oc23)CN1 ... 8.07
CCOC(=O)CCCOc1c(O)ccc2cc(-c3ccc(OC(F)F)c(OCC4CC4)c3)oc12 ... 7.64
Oc1ccc2cc(-c3ccc(OC(F)F)c(OCC4CC4)c3)oc2c1O ... 6.38

Task: Which pIC50 reading was recorded for the compound "COC(=O)[C@@H](N)CCOc1c(O)ccc2cc(-c3ccc(OC(F)F)c(OCC4CC4)c3)oc12" ?
Result: 7.53

Task: Okay, and "O=C(O)CCCOc1c(O)ccc2cc(-c3ccc(OC(F)F)c(OCC4CC4)c3)oc12" ?
Result: 7.66

Task: And "COC(=O)COc1c(O)ccc2cc(-c3ccc(OC(F)F)c(OCC4CC4)c3)oc12" ?
Result: 7.41

====

Target: 3',5'-cyclic-AMP phosphodiesterase 4D (Homo sapiens)
Test: Inhibition of PDE4D (unknown origin)
TEST_READOUT: pIC50
Scale for pIC50: -log10 of concentration given in mol/L; no unit attached.

Task: Which measured pIC50 belongs to "Oc1ccc2cc(-c3ccc(OC(F)F)c(OCC4CC4)c3)oc2c1O" , tested on 3',5'-cyclic-AMP phosphodiesterase 4D (Homo sapiens)?
Result: 6.38

====

The following compounds are shown together with reported half-life at 1 µM values.
Assay: Metabolic stability in rat liver microsomes assessed as half life at 1 uM incubated upto 60 mins in presence of NADPH by LC-MS/MS analysis
Assay type: ADME, Microsome
Field: numeric (min). Do not append units.

Past entries and their recorded results:
COC(=O)[C@H]1C[C@H](Oc2c(O)ccc3cc(-c4ccc(OC(F)F)c(OCC5CC5)c4)oc23)CN1 ... 3.7
COC(=O)[C@@H]1C[C@@H](Oc2c(O)ccc3cc(-c4ccc(OC(F)F)c(OCC5CC5)c4)oc23)CN1 ... 3.4
COC(=O)[C@@H]1C[C@H](Oc2c(O)ccc3cc(-c4ccc(OC(F)F)c(OCC5CC5)c4)oc23)CN1 ... 4
COC(=O)CCCOc1c(O)ccc2cc(-c3ccc(OC(F)F)c(OCC4CC4)c3)oc12 ... 0.7
Oc1ccc2cc(-c3ccc(OC(F)F)c(OCC4CC4)c3)oc2c1O ... 21
COC(=O)CCCCOc1c(O)ccc2cc(-c3ccc(OC(F)F)c(OCC4CC4)c3)oc12 ... 3.6
COC(=O)[C@@H](N)CCOc1c(O)ccc2cc(-c3ccc(OC(F)F)c(OCC4CC4)c3)oc12 ... 4.8
COC(=O)[C@H]1C[C@@H](Oc2c(O)ccc3cc(-c4ccc(OC(F)F)c(OCC5CC5)c4)oc23)CN1 ... 22.9

Task: Give its half-life at 1 µM value. Item: "O=C(O)CCCOc1c(O)ccc2cc(-c3ccc(OC(F)F)c(OCC4CC4)c3)oc12"
Result: 1.2

Task: And the next one, "O=C(O)CCCCOc1c(O)ccc2cc(-c3ccc(OC(F)F)c(OCC4CC4)c3)oc12" ?
Result: 92.4

Where these numbers come from: ChEMBL document CHEMBL6115031
